ASSAY REMARKS: physchem
Type: physicochemical
STATED CONDITIONS: pH 6, aqueous buffer

- CHEMICAL STRUCTURE: "O=C(O)c1cccnc1C(=O)O"
  solubility (µg/mL): 20

====

ASSAY REMARKS: physchem
Format: physicochemical
STATED CONDITIONS: aqueous with cosolvent or surfactant or cyclodextrin
Experimental: A chemical molecule (compound B) is presented with a low molecular weight. […] The solubility is increased up to 8 mg/ml in PEG200. A calpain inhibitor (PD 150606) is presented, having a low molecular weight of 306 Da. […] The solubility is increased up to 8 mg/ml in PEG200.

- CHEMICAL STRUCTURE: "C[C@@H](Oc1cc(-c2cnn(C3CCNCC3)c2)cnc1N)c1c(Cl)ccc(F)c1Cl"
  solubility / µg/mL: 2200

====

List of solubility values.
ASSAY REMARKS: physchem
Format: physicochemical
STATED CONDITIONS: pH 7, aqueous with cosolvent or surfactant or cyclodextrin

- CHEMICAL STRUCTURE: "C[C@@H](Oc1cc(-c2cnn(C3CCNCC3)c2)cnc1N)c1c(Cl)ccc(F)c1Cl"
  solubility: "≥ 5000 µg/mL"
- CHEMICAL STRUCTURE: "O=C(O)c1cccnc1C(=O)O"
  solubility: "≤ 2200 µg/mL"

====

ASSAY REMARKS: physchem
Type: physicochemical
STATED CONDITIONS: 20 °C

- CHEMICAL STRUCTURE: "C[C@@H](Oc1cc(-c2cnn(C3CCNCC3)c2)cnc1N)c1c(Cl)ccc(F)c1Cl"
  solubility: "< 100 µg/mL"
